Measured growth of individual entries
Test system: HOP-62 NSCLC
Assay: NCI-60 one-dose screen, 48 h (100 = growth as untreated, 0 = no growth, -100 = all killed)
Conditions: 10 µM unless noted
This is part of a sample that, as a whole, favours compounds with a hit. Of some 83,000 tested, about 20% had one in any assay.
Please state the figure in %; there is no need to write the unit.

Recall the reported growth of Cn1cc(CC2CC(=O)N(c3ccccc3)C2=O)sc1=NC(=O)c1ccccc1 (stereo not given) on HOP-62 NSCLC and write it down.
92.9

====

Test system: NCI-H460 lung
Assay: NCI-60 one-dose screen, 48 h (100 = growth as untreated, 0 = no growth, -100 = all killed)
Details: 10 µM unless noted
The panel holds about 83,000 compounds, 20% with a hit somewhere; the sample as a whole holds those more often.
measured property: growth (%)
Please state the figure in %; there is no need to write the unit.

Identify measured growth corresponding to "COc1cc(/C(C)=C(\c2ccc(Cl)cc2)c2ccc(OCCN(C)C)cc2)ccc1F"
7.61

====

System: SNB-19 CNS
Experiment: NCI-60 one-dose screen, 48 h (100 = growth as untreated, 0 = no growth, -100 = all killed)
Conditions: 10 µM unless noted
About 83,000 compounds went through this panel and 20% of them were active in at least one assay; those are over-represented in the sample as a whole.
Measured growth of individual entries
Please state the figure in %; there is no need to write the unit.

Below, each entry is followed by its recorded growth result.
Identify measured growth corresponding to "Nc1nc(Nc2ccccc2SSc2ccccc2Nc2nc(N)nc(-c3ccc(C(F)(F)F)cc3)n2)nc(-c2ccc(C(F)(F)F)cc2)n1"
58

Identify measured growth corresponding to "CCNc1nc2cc(Nc3ccnc4cc(Cl)ccc34)ccc2o1"
84.4

Identify measured growth corresponding to COc1cc(C2=NN(C(C)=O)C(c3cc(OC)c(OC)c(OC)c3)C2)ccc1O (stereo not drawn)
34.9

---
Identify measured growth corresponding to "CN1CCN(C(=O)[C@]23CCC(C)(C)C[C@H]2C2=CC[C@@H]4[C@@]5(C)C/C(=C/c6cccnc6)C(=O)C(C)(C)[C@@H]5CC[C@@]4(C)[C@]2(C)CC3)CC1"
65.4

Identify measured growth corresponding to "COc1cc(F)c(/C=C/c2cc(/C=C/c3cc(OC)c(OC)cc3F)on2)cc1OC"
76.8

Identify measured growth corresponding to COc1cc2c(c(OC)c1OC)CCC(c1cccc(NC(=O)c3cccc(Br)c3)c1)O2 (stereo not drawn)
94.5

Identify measured growth corresponding to "CCOC(=O)Oc1c(OC)cc(C(=O)c2ccc(OC)c(OC(=O)CCl)c2OC)cc1OC"
22.8

Identify measured growth corresponding to COc1cc(C2C3=C(COC3=O)N(CCO)c3cc4c(cc32)OCO4)cc(OC)c1OC (stereo not drawn)
-2.19

====

Tested on: MDA-MB-231 breast
Assay: NCI-60 one-dose screen, 48 h
Details: 10 µM unless noted
Experimental: Cells are grown in 96 well plates and exposed to the test compound for 48 hours. Compounds are tested at a single concentration, which is 10^-5 M for most compounds. The reported endpoint is percent growth (GI% or GIPRCNT), where numbers from 0 - 100% represent growth inhibition, and numbers from -100% - 0 represent cell death. For example, a value of 40 represents 60% growth inhibition. A value of 0 means no net growth occurred over the course of the experiment. […]
Compounds without any hit were thinned out: in the full panel of roughly 83,000, 20% have a hit. Active and inactive are the calls of the source. How the source made its calls: active means growth percent below 10; inactive means the rest.
// classify into TRUE (active), FALSE (inactive)

Here are 3 compounds together with their reported answers.
Identify the outcome logged in this assay for the compound shown: COc1cc2c(c(OC)c1OC)CCC(c1cccc(NC(=O)c3cccc(Br)c3)c1)O2 (stereo not given)
FALSE

Identify the outcome logged in this assay for the compound shown: "Cc1ccc(NS(=O)(=O)c2ccc(-c3cnc(C4CC4)o3)cc2)cc1C(F)(F)F"
FALSE

Identify the outcome logged in this assay for the compound shown: N#CC(C(=O)/C(=N/NC(=O)c1ccccc1O)C(C#N)c1ccccc1)c1ccccc1 (stereo not given)
FALSE

---
Identify the outcome logged in this assay for the compound shown: "COc1ccc(C(=O)NNc2nc(Cl)nc(N3CCN(C(c4ccccc4)c4ccccc4)CC3)n2)cc1"
TRUE

Identify the outcome logged in this assay for the compound shown: "O=C(/C=C(/C=C/c1coc2ccccc12)OB(F)F)/C=C/c1coc2ccccc12"
FALSE

Identify the outcome logged in this assay for the compound shown: "CCOC(=O)Oc1c(OC)cc(C(=O)c2ccc(OC)c(OC(=O)CCl)c2OC)cc1OC"
FALSE

Identify the outcome logged in this assay for the compound shown: "CCC(CC)NCC(C)(C)O"
FALSE

Identify the outcome logged in this assay for the compound shown: "O=C(Cc1ccccc1)NNc1nc(Cl)nc(N2CCN(C(c3ccccc3)c3ccccc3)CC2)n1"
FALSE

Identify the outcome logged in this assay for the compound shown: "N#C/C(=C\c1ccc(Cl)cc1)n1nnc2cc(F)c(F)cc21"
FALSE

Identify the outcome logged in this assay for the compound shown: COc1cc(C2=NN(C(C)=O)C(c3cc(OC)c(OC)c(OC)c3)C2)ccc1O (stereo not given)
TRUE

====

Test system: OVCAR-8 ovarian
Experiment: NCI-60 one-dose screen, 48 h (100 = growth as untreated, 0 = no growth, -100 = all killed)
Conditions: 10 µM unless noted
The panel holds about 83,000 compounds, 20% with a hit somewhere; the sample as a whole holds those more often.
measured property: growth (%)
Please state the figure in %; there is no need to write the unit.

Below, each entry is followed by its recorded growth result.
Identify measured growth corresponding to "O=C(Cc1ccccc1)NNc1nc(Cl)nc(N2CCN(C(c3ccccc3)c3ccccc3)CC2)n1"
91.8

Identify measured growth corresponding to "O=C(Nc1ccc(-c2ccc3c(c2)NC(=O)/C3=C\c2ccc[nH]2)cc1)NC1CC1"
109

Identify measured growth corresponding to "CC(C)=CCC[C@](C)(O)[C@H]1CC[C@]2(C)[C@@H]1CC[C@@H]1[C@@]3(C)C/C(=C/c4ccccc4)C(=O)C(C)(C)[C@@H]3CC[C@]12C"
93.4

Identify measured growth corresponding to "Cc1ccc(-c2nc3ccccn3c2/C=C2/C(=O)Nc3cc(Cl)ccc32)cc1"
91.7

Identify measured growth corresponding to "COc1cc2c(-c3cc4c(cc3CNCCc3ccc5c(c3)OCO5)OCO4)cccc2c(OC)c1O"
79.9

---
Identify measured growth corresponding to "C/C(=N\Nc1cc(C)nc2ccc(Br)cc12)c1ccc([N+](=O)[O-])cc1"
50.8

Identify measured growth corresponding to "Fc1ccc2c(-c3cncn3CCc3ccccc3)c[nH]c2c1"
97.7

====

System: RPMI-8226 leukemia
Assay: NCI-60 one-dose screen, 48 h
Conditions: 10 µM unless noted
This is part of a sample that, as a whole, favours compounds with a hit. Of some 83,000 tested, about 20% had one in any assay. Active and inactive are the calls of the source. Rule for the calls: active = growth percent below 10; inactive = the rest.
// classify into YES for active, NO for inactive

Identify the outcome logged in this assay for the compound shown: "C=C1C(=O)O[C@H]2[C@H]1CC/C(CNC(=O)c1cccc3ccccc13)=C\CC[C@@]1(C)O[C@@H]21"
YES

Identify the outcome logged in this assay for the compound shown: COc1cc(NC(C)CCCNC(=O)CCC(=O)NCCCNCCCCCCCCCCNCCCNC(=O)CCC(=O)NCCCC(C)Nc2cc(OC)cc3cccnc23)c2ncccc2c1 (stereo unspecified)
NO

Identify the outcome logged in this assay for the compound shown: COc1cc(C2C3=C(COC3=O)N(CCO)c3cc4c(cc32)OCO4)cc(OC)c1OC (stereo unspecified)
NO

Identify the outcome logged in this assay for the compound shown: "CN1CCN(C(=O)[C@]23CCC(C)(C)C[C@H]2C2=CC[C@@H]4[C@@]5(C)C/C(=C/c6ccncc6)C(=O)C(C)(C)[C@@H]5CC[C@@]4(C)[C@]2(C)CC3)CC1"
YES

Identify the outcome logged in this assay for the compound shown: "N#C/C(=C\c1ccccn1)c1nc2cc(Cl)ccc2s1"
NO

---
Identify the outcome logged in this assay for the compound shown: "COc1cc2oc(-c3cccc(C(=O)Nc4ccc5c(c4)OCO5)c3)cc(=O)c2c(O)c1OC"
NO

Identify the outcome logged in this assay for the compound shown: O=C1OC(Cc2ccccc2)C1c1ccccc1 (stereo unspecified)
NO

Identify the outcome logged in this assay for the compound shown: "COc1cc2c(-c3cc4c(cc3CNCCc3ccc5c(c3)OCO5)OCO4)cccc2c(OC)c1O"
NO

Identify the outcome logged in this assay for the compound shown: N#CC1=C(/N=C/c2ccccc2)Oc2c(ccc3ccccc23)C1c1ccc([N+](=O)[O-])cc1 (stereo unspecified)
NO

Identify the outcome logged in this assay for the compound shown: "Cc1cc2c(C(=O)NCC#N)cccc2n1-c1nc2c(c(NCc3ccccc3)n1)CCCC2"
YES

Identify the outcome logged in this assay for the compound shown: COC(=O)C1=C(C(=O)ON)C2C=CC1(C(Cc1ccccc1)Nc1ccccc1)O2 (stereo unspecified)
NO

Identify the outcome logged in this assay for the compound shown: "N#Cc1c(NCc2ccccc2I)sc2c1CCCCC2"
NO

Identify the outcome logged in this assay for the compound shown: O=C(N/N=C/c1ccc(Oc2ccccc2)cc1)c1cnn2c1NC(c1ccccc1)C2 (stereo unspecified)
NO

Identify the outcome logged in this assay for the compound shown: "Cc1c(C)c([N+](=O)[O-])c(C)c([N+](=O)[O-])c1C"
NO

Identify the outcome logged in this assay for the compound shown: O=[N+]([O-])CC(c1ccccc1F)c1c[nH]c2ccccc12 (stereo unspecified)
NO

Identify the outcome logged in this assay for the compound shown: "CCc1ccc(-c2cn3ccnc3c(-c3ccc4ncn(Cc5ccccc5)c4c3)n2)cc1"
NO

Identify the outcome logged in this assay for the compound shown: "Fc1ccc2c(-c3cncn3CCc3ccccc3)c[nH]c2c1"
NO
